Hey, just so you know, these numbers are from patent US20220227745A1.

assay-system: hFXR-LBD (FXR-GAL4 chimeric receptor) (Homo sapiens)
Sequence (Q96RI1 262-486 limits assumed): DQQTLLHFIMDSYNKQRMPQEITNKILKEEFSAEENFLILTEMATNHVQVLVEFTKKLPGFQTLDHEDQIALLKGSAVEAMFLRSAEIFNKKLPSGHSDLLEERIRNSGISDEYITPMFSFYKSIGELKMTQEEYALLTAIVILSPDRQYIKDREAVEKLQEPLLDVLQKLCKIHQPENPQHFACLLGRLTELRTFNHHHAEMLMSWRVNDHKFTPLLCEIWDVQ
experiment-description: FXR Transactivation Assay (GAL4 luciferase reporter in HEK293T cells)
pEC50: −log10 of the molar value.
Returns one of 1 or 0; 1 when pEC50 is >= 6.

C[C@@H]1CN(CCc2c(-c3c(Cl)cccc3Cl)noc2C2CC2)CCN1c1ccc2c(C(=O)O)cn(C)c2c1; 1
O=C(O)c1cc(F)c2nc(N3CCN(CCc4c(-c5ccccc5OC(F)(F)F)noc4C4CC4)CC3)sc2c1; 0
Cn1cc(C(=O)O)c2ccc(N3CCN(CCc4c(-c5c(Cl)cccc5Cl)noc4C4CC4)CC3)cc21; 1
Cc1onc(-c2c(Cl)cccc2Cl)c1CCN1CCN(c2ccc3c(C(=O)O)cn(C)c3c2)CC1; 0

In plain terms: is recorded pEC50 at least 6 for CC1CN(CCc2c(-c3c(Cl)cccc3Cl)noc2C2CC2)CCN1c1ccc2c(C(=O)O)cn(C)c2c1 (stereo not shown) ?
1

Next record, please: C[C@@H]1CN(c2ccc3c(C(=O)O)cn(C)c3c2)CCN1CCc1c(-c2c(Cl)cccc2Cl)noc1C1CC1
1

Next record, please: Cc1cccc(Cl)c1-c1noc(C2CC2)c1CCN1CCN(c2ccc3c(C(=O)O)cn(C)c3c2)CC1
1

----------
assay-system: FXR LBD, GST (Homo sapiens)
Construct: FXR LBD, GST
experiment-description: FXR Binding Assay (TR-FRET, Fluorescein-SRC2-2 coactivator peptide)
experimental-conditions: TR-FRET FXR LBD coactivator recruitment
readout-kind: pEC50
API: returns pEC50 as number; meaning -log10 of concentration in mol/L.

Answered cases to consult:
Cn1cc(C(=O)O)c2ccc(N3CC4CC3CN4CCc3c(-c4c(Cl)cccc4Cl)noc3C3CC3)cc21 (centres unmarked) [Example I29]; 5.42
Cn1cc(C(=O)O)c2ccc(N3C[C@H]4C[C@@H]3CN4CCc3c(-c4c(Cl)cccc4Cl)noc3C3CC3)cc21; 5.87
Cn1cc(C(=O)O)c2ccc(N3CC4CC3CN4CCc3c(-c4c(Cl)cccc4Cl)noc3C3CC3)cc21 (centres unmarked) [Example I48]; 5.76
Cn1cc(C(=O)O)c2cc(F)c(N3CCN(CCc4c(-c5c(Cl)cccc5Cl)noc4C4CC4)CC3)cc21 [Example I45]; 7.14

// lookup pEC50 for CC1CN(c2ccc3c(C(=O)O)cn(C)c3c2)CCN1CCc1c(-c2c(Cl)cccc2Cl)noc1C1CC1 (centres unmarked)
7.03

Next record, please: Cn1nc(C(=O)O)c2ccc(N3CCN(CCc4c(-c5c(Cl)cccc5Cl)noc4C4CC4)CC3)cc21
7.34

Next record, please: Cn1cc(C(=O)O)c2c(F)cc(N3CC4CC(C3)C4OCc3c(-c4c(Cl)cccc4Cl)noc3C3CC3)cc21 (centres unmarked)
6.99

Next record, please: Cn1cc(C(=O)O)c2ccc(N3CCN(CCc4c(-c5c(F)cccc5F)noc4C4CC4)CC3)cc21
5.79

Next record, please: C[C@@H]1CN(CCc2c(-c3c(Cl)cccc3Cl)noc2C2CC2)CCN1c1ccc2c(C(=O)O)cn(C)c2c1
7.11

Next record, please: Cn1cc(C(=O)O)c2ccc(N3CCN(CCc4c(-c5ccccc5F)noc4C4CC4)CC3)cc21
5.36

----------
assay-system: hFXR-LBD (FXR-GAL4 chimeric receptor) (Homo sapiens)
Sequence (Q96RI1 262-486 limits assumed): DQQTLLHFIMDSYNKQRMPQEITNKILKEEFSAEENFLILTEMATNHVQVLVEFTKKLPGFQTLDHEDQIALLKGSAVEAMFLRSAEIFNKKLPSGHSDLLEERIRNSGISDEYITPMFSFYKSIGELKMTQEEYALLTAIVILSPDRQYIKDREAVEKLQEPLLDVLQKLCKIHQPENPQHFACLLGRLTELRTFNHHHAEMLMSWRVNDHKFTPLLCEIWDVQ
experiment-description: FXR Transactivation Assay (GAL4 luciferase reporter in HEK293T cells)
readout-kind: EC50 (nM)
Give the quantity in nM, number only.

API: value(readout= EC50, system= hFXR-LBD (FXR-GAL4 chimeric receptor) (Homo sapiens), query= Cn1cc(C(=O)O)c2ccc(N3CCCN(CCc4c(-c5c(Cl)cccc5Cl)noc4C4CC4)CC3)cc21 [Example I7] )
743

Next record, please: Cn1cc(C(=O)O)c2ccc(N3C4CCC3CN(CCc3c(-c5c(Cl)cccc5Cl)noc3C3CC3)C4)cc21 [Example I30]
1200

Next record, please: O=C(O)c1ccc(N2CCN(CCc3c(-c4c(Cl)cccc4Cl)noc3C3CC3)CC2)cc1 [Example I14]
912

Next record, please: O=C(O)c1ccc2nc(N3CCN(CCc4c(-c5c(Cl)cccc5Cl)noc4C4CC4)CC3)sc2c1 [Example I4]
1500

Next record, please: Cn1cc(C(=O)O)c2ccc(N3CCN(CCc4c(-c5ccccc5C(F)(F)F)noc4C4CC4)CC3)cc21 [Example I26]
1210

Next record, please: Cn1cc(C(=O)O)c2ccc(N3CCN(CCc4c(-c5c(Cl)cccc5Cl)noc4C4CC4)C(C)(C)C3)cc21 [Example I38]
377

Next record, please: Cn1cc(C(=O)O)c2ccc(C3CCN(CCc4c(-c5c(Cl)cccc5Cl)noc4C4CC4)CC3)cc21 [Example I36]
577

Next record, please: CN(Cc1c(-c2c(Cl)cccc2Cl)noc1C1CC1)C1CCN(c2ccc3c(C(=O)O)cn(C)c3c2)CC1 [Example I58]
2270

----------
assay-system: FXR LBD, GST (Homo sapiens)
Construct: FXR LBD, GST; purchased Invitrogen PV4834
Sequence (Q96RI1 262-486 limits assumed): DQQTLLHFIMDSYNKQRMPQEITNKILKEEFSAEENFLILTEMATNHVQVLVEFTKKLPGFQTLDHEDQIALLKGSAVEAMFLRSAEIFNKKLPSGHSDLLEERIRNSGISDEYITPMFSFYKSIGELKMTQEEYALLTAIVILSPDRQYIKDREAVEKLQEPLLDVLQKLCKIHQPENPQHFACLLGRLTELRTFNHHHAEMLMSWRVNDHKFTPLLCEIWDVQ
experiment-description: FXR Binding Assay (TR-FRET, Fluorescein-SRC2-2 coactivator peptide)
experimental-conditions: % Activity relative to positive control; read-out: Pct Effect (Emax %)
readout-kind: Emax
Number first, unit second: that is the form wanted.

Answered cases to consult:
Cn1nc(C(=O)O)c2ccc(N3CCN(CCc4c(-c5c(Cl)cccc5Cl)noc4C4CC4)CC3)cc21 [Example I17]; 131%
CC(C)c1onc(-c2c(Cl)cccc2Cl)c1CCN1CCN(c2ccc3c(C(=O)O)cn(C)c3c2)CC1 [Example I3]; 192%
C[C@H]1CN(c2ccc3c(C(=O)O)cn(C)c3c2)CCN1CCc1c(-c2c(Cl)cccc2Cl)noc1C1CC1 [Example I37]; 232%
CC1CN(c2ccc3nc(C(=O)O)ccc3c2)CCN1CCc1c(-c2c(Cl)cccc2Cl)noc1C1CC1 (centres unmarked) [Example I52]; 121%

Pending compound:
// lookup Emax for Cn1cc(C(=O)O)c2ccc(N3CCN(CCc4c(-c5ccccc5OC(F)(F)F)noc4C4CC4)CC3)cc21 [Example I20]
193%

----------
assay-system: hFXR-LBD (FXR-GAL4 chimeric receptor) (Homo sapiens)
experiment-description: FXR Transactivation Assay (GAL4 luciferase reporter in HEK293T cells)
Protocol: FXR Transactivation Assay The present compounds were tested to assess their ability to stimulate FXR transactivation activity. The hFXR-LBD, coding sequence was inserted into the pBIND expression vector (Promega, E1581) to express FXR-GAL4 binding domain chimeric receptors. […] All the working stock were shake for 5 min on plate shaker (QILINBEIER). […] Then, the luminescence value was read on Evision 2104 plate reader (PerkinElmer). The activity ratio was calculated as follow: […] RLU: Resulting Luminescence […]
readout-kind: pEC50
API: returns pEC50 as number; meaning -log10 of concentration in mol/L.

O=C(O)c1c[nH]c2cc(N3CCN(CCc4c(-c5c(Cl)cccc5Cl)noc4C4CC4)CC3)ccc12 [Example I15]; 6.18
Cn1cc(C(=O)O)c2ccc(N3CCN(CCc4c(-c5ccccc5OC(F)(F)F)noc4C4CC4)CC3)cc21 [Example I20]; 6.04

Pending compound:
// lookup pEC50 for Cn1nc(C(=O)O)c2ccc(N3CCN(CCc4c(-c5c(Cl)cccc5Cl)noc4C4CC4)CC3)cc21 [Example I17]
5.91
